- System: MS2 coat protein
- protocol: apparent KD of MS2 coat protein; designed switch direction (-1 OFF switch, 1 ON switch): -1; higher = weaker reporter binding
- setupConditions: input ligand: FMN 200 uM
Use 0.04 µM as the dividing line for apparent KD of MS2 coat protein, with the line itself on the true (1) side and lower values as false (0).

# example entries with known answers
AAUGCGGACAAAGGAUAUUGCGGUGACCGGCUCGGCGUACCGAGCCUACAUGAGGAUCACCCAUGUAAGAAGGUUGUCGCAAAA [Mat - Exclusion NG 2 - Mod of JL - D75] (Eterna round: R96, puzzle: Exclusion NG 2); false (0)
GCAAGCUUUUGCUCGGCUUACAUGAGGAUCACCCAUGUGGGCCCGGGCCCGGGCCCGCCGGGCCCGGGCCCGGGCCC [-58.5, -80.7, A 10%] (Eterna round: R97, puzzle: Sensor, turn-off variant 1); false (0)
GGGUGACAUGAGGAUCACCCAUGUCAGGAUAUGAUUCUGCUUGCGAAAGCGAGUAGAAUCAGAAGGGACAACCC (Eterna round: R97, puzzle: Exclusion 1); true (1)

Please tell me: is the sequence UGAUCUAGCGGAGGAUAUACAUGAGGAUCACCCAUGUAAGUCGCCUUACCGUAGUGAAGCAUCAUGUAGAAGGCCGCUAGAUCU [MOD4 ENG2 3.62 by JL (unstable but ms2 present in dot)] (Eterna round: R96, puzzle: Exclusion NG 2) at or over 0.04 µM in terms of apparent KD of MS2 coat protein?
true (1)

Please tell me: is the sequence ACAUGACUGCUAGGAUAUAGAUGACAUGAGGAUCACCCAUGUUGUCCCAUGUUUAUGGAAACGGACUAGAAGGAGCAGCAUAUG [Ex NG2 #12] (Eterna round: R96, puzzle: Exclusion NG 2) at or over 0.04 µM in terms of apparent KD of MS2 coat protein?
false (0)

Please tell me: is the sequence AUUCGAAAGAUCCACAUGGACAUGAGGAUCACCCAUGUGCAAGCCUUUUUCUCGUCACUAUCGUCAAAAGACGAUAG [Omei Mir Offv1 A7] (Eterna round: R97, puzzle: Sensor, turn-off variant 1) at or over 0.04 µM in terms of apparent KD of MS2 coat protein?
true (1)

Please tell me: is the sequence CGACGUGGAGUGAGGAUAUCGUGUUCGAAAGAACGUGAGAAGGCACAUGAGGAUCACCCAUGUGAUUCACGUCG [Omei Ex4B A5] (Eterna round: R97, puzzle: Brourd's mod of Exclusion 4) at or over 0.04 µM in terms of apparent KD of MS2 coat protein?
false (0)

Please tell me: is the sequence UGACCUAAAGGAUAUACAUGAGGAUCACCCAUGUCUUCAGCUGCCGUAAGGGAUCUUAGUAGAAGGUUAGGUCG [Eternabot (L1) Solution 43] (Eterna round: R97, puzzle: Exclusion 3) at or over 0.04 µM in terms of apparent KD of MS2 coat protein?
true (1)

###

Quick list: apparent KD of K4 kissing-loop reporter per entry.
- Test system: K4 kissing-loop RNA reporter
- protocol: apparent KD of K4 kissing-loop reporter; higher = weaker reporter binding
- setupConditions: Eterna round: R107; input ligand: none
Give the quantity in nM, number only.

Past entries and their recorded results:
CGAUCUGAUAGCAGUGAUGUUGCUACAGAUACCAGUCCAGAUCGAGACCCUUGGCAGCUGACCCGGCAUGUGCUAUGGUAGAUCG [Theo A Ex t1]; 155
AAUGUAUUCCACAUGAGUGAUGUUCAUGUGCGAGGACCGGUACGGCCGCCACUCGCAGUUGUGAUCAGUUCUGAAUACAUUAAUG [KL-XTryp-A3]; 219
AAUAAAAGAUGUUUAGGAAAGCAAAUGGAAGGAGCGUGCGAAAGCACAGGUAGGUCGCCAGUGAUGUUGGCACCUGAGCAUCAAA [#SwitchBubble 18 #K4Late]; 303
UGAUUGCCAGUGAUGUUGGCAGUUUCUGAAGGAGCGCGUGAAAACGCAGGUAGGUCGCAGAUUAGUGCCAAUUGAUCGAAAGAUC [KL-XArg-A4]; 214
UGAUACCAGACGGCCGCCACUGGGACCGGGAGUGAUGUUCCAAAUAAAAGAAGCUCGGCCGCCACUAGGACCGGGUCUGGUAUCU [TrypBX 21 #DoubleAptamer #SwitchBubble]; 339

Then there is this sequence:
apparent KD of K4 kissing-loop reporter lookup needed for UUGUCCGGGUGAUGGUCAUCACGUGGCGGGCGAGGACCGGUACGGCCGCCACUCGACUUUGCAGUGAUGUUGCAAACCGGACAAU [Exclusion - Tryptophan A (Freestyle 23)] , thanks.
192

###

- Tested on: MS2 coat protein
- protocol: apparent KD of MS2 coat protein; designed switch direction (-1 OFF switch, 1 ON switch): -1; higher = weaker reporter binding
- setupConditions: input ligand: FMN 200 uM
Quick list: apparent KD of MS2 coat protein per entry.
Give the quantity in nM, number only.

Past entries and their recorded results:
CCUCGACAUGAGGAUCACCCAUGUGAGGAUAUCAUAUUCAGACGAAAGGUGUUAGAGUUGAGAAGGCGCAUGUU [Eternabot (L1) Solution 51] (Eterna round: R97, puzzle: Exclusion 1); 44.1
AGUCAGGCGGUAGGAUAUCCAAACCGAGUGACCCUUUCAUAACAUGAGGAUCACCCAUGUCGGUGGGAGAAGGGCCGUACGGCA [Mat - Exclusion NG 2 - Mod of JL - D65] (Eterna round: R96, puzzle: Exclusion NG 2); 410

apparent KD of MS2 coat protein lookup needed for AUAUAGUGAGGAUAUACAUGAGGAUCACCCAUGUGGUAGUAGAUACAGUAGAGAUAGAGUAGAAGGCACGAUGA [EX3 #26] (Eterna round: R97, puzzle: Exclusion 3) , thanks.
197

###

- System: MS2 coat protein
- protocol: apparent KD of MS2 coat protein, switch OFF state (with FMN for OFF switches, without FMN for ON switches); designed switch direction (-1 OFF switch, 1 ON switch): 1; higher = weaker reporter binding
- setupConditions: FMN input: 0 or 200 uM; Eterna round: R93 (includes R88 designs)
measurementKind: apparent KD of MS2 coat protein (nM)
Give the quantity in nM, number only.

CAUAGACAUGAGGAUCACCCAUGUAGAAUUAUGGGAGGAUAUACAAAGACGAGAGUCAGAGUAGAAGGCCUAGGAU [salish99-ss1-162]; 35.6
CAUCAUGCGCCUAAGGAUAUGUCUCACAAGACAUGAGGAUCACCCAUGUAGAAUAAAUAAAUGAUGCAGAAGGUGGAGUGCAUGA [Inares]; 785
UAUCAUUACACGAAGGAUAUCGAUAAUUGAACAUGAGGAUCACCCAUGUGCCAUUCUUUACAGUUCGAGAAGGUCGAGGGUGAAG [JR_SS002_Sub708]; 83.5
CAUCAUGCGCCUAAGGAUAUGUCCCACAAGACAUGAGGAUCACCCAUGUAGCCAAUUAAUACGGUGCAGAAGGUGGAGCGCAUGC [Qusotior]; 1080
AGAAAUAAAAGAGAGGAUAUCUUAAAGAAAACAUGAGGAUCACCCAUGUAAAAGAAAAUAAAAUGGGAGAAGGCUCAUAAUAAAG [JL Skelter Mod 4 In the Red]; 109

Then there is this sequence:
apparent KD of MS2 coat protein lookup needed for AGGAAACAUGAGGAUCACCCAUGUAAAAAUAUGGGAGGAUAUACGAAGACGAAAGAAAAAGUAGAAGGCCUAAAAG [Garnet 14] , thanks.
155

###

- System: K4 kissing-loop RNA reporter;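 further: bound reporter read as fluorescence of individual clusters on recovered sequencing chips by microscopy, with normalized cluster intensities fitted with a binding model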
- protocol: apparent KD of K4 kissing-loop reporter; higher = weaker reporter binding
- setupConditions: Eterna round: R107; input ligand: FMN 200 uM
measurementKind: apparent KD of K4 kissing-loop reporter (nM)
Give the quantity in nM, number only.

Past entries and their recorded results:
UGCAUGCUUGGAGUGAUGUUCCAAGAUGAUACCAGUGCUUUUUUGCACCCUUGGCAGCGUCUGAUUGCAUGCACGUCGAAAGACG; 531
GGGAAGAAGGCGGCCGCCACUGCAGAAGAGACAGAGAGGGAAGAAGAGGAGUGAUGUUCCAAGAACAGGACCGGGCCAAGAAGGG [whbob_SS_Tryp_B_t29]; 598
GAGGUGGAGUGAUGUUCCACACUCGCUAGUAAGGAUAUGGCUGCUUCCAGAAGGUACCUAGAUUCAGUGUGCAUCAGUAACGUGC [theeternabot_exclusion_KL_FMN_A_4]; 95.2
ACGUGCACUAGUGAUGUUAGAAAAUACGAAGGAGCGGGCGAAAGCCCAGGUAGGUCGCGUAAUAGCACGAGCCACGAAAGUGGCA; 254

Field: apparent KD of K4 kissing-loop reporter (K4 kissing-loop RNA reporter). Entry: CCAUCGCUAUUCGAUACCAGUCUACGUAGGAAACUACGUCUGCAAAGGAGUGAUGUUCCAGACCCUUGGCAGCGAAUAGUGAUGG [Theophylline B K4 5]
969

Field: apparent KD of K4 kissing-loop reporter (K4 kissing-loop RNA reporter). Entry: AAUGGGUGAUAAGGAUAUCCACCUCACAAACCAAGAGUGAUGUUCGUUGGUCCAUGGACAAUAUGUGGAGAAGGUAUAGUGAUUA [theeternabot_exclusion_KL_FMN_B_48]
855

The values you see were collected from the supplement of paper PMC9170038.
